B1: MGC27345 (parent)
chain: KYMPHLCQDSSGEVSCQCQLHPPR

Variants of: B1
Experiment: protein stability index of a GFP-peptide fusion (GPS, HEK-293T) (PSI 1-6); higher = more stable;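 further: lentivirally expressed fusions sorted by FACS into six bins by GFP to DsRed ratio, PSI derived from sequencing read proportions per bin multiplied by bin number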
Settings: c terminus: a fixed tail appended
ASSAY_ENDPOINT: protein stability index
API doc: respond with a numeric literal and nothing else, no unit.

What value of protein stability index has been recorded for this entry: "P23C" 3.96

What value of protein stability index has been recorded for this entry: "D9R" 1.89

What value of protein stability index has been recorded for this entry: "E13T" 2.22

What value of protein stability index has been recorded for this entry: "C16P" 3.31

What value of protein stability index has been recorded for this entry: "P22R" 2.62

What value of protein stability index has been recorded for this entry: "S10P" 2.05

What value of protein stability index has been recorded for this entry: "L6G" 2.66

What value of protein stability index has been recorded for this entry: "G12N" 1.67

What value of protein stability index has been recorded for this entry: "M3S" 2.27

What value of protein stability index has been recorded for this entry: "S10V" 1.56

What value of protein stability index has been recorded for this entry: "L20N" 2.56

What value of protein stability index has been recorded for this entry: "P4T" 1.98

What value of protein stability index has been recorded for this entry: "R24D" 4.59

What value of protein stability index has been recorded for this entry: "E13V" 1.78

What value of protein stability index has been recorded for this entry: "V14L" 1.97

What value of protein stability index has been recorded for this entry: "D9Y" 1.67

What value of protein stability index has been recorded for this entry: "H5T" 2.21

What value of protein stability index has been recorded for this entry: "S15G" 2.14

What value of protein stability index has been recorded for this entry: "L20W" 1.82

What value of protein stability index has been recorded for this entry: "S11Y" 1.52

What value of protein stability index has been recorded for this entry: "E13D" 2.57

What value of protein stability index has been recorded for this entry: "C7L" 1.85
